# experimental_system: Nuclear receptor subfamily 1 group I member 3 (Homo sapiens) (UniProt Q14994)
# Sequence (Q14994 whole entry, looked up): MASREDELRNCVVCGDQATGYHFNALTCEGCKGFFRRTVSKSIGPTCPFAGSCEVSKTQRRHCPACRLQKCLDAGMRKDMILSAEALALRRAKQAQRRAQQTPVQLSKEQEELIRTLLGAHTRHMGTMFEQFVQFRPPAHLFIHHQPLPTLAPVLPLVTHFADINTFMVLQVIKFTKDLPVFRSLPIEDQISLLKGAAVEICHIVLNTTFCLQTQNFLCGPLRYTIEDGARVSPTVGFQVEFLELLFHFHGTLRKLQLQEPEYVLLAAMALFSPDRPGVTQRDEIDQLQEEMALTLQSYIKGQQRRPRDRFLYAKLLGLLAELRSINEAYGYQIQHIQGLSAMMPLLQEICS
# assay: qHTS assay to identify small molecule agonists of the constitutive androstane receptor (CAR) signaling pathway (AID 1224839);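 further: HepG2 cells stably carrying human CAR and a CYP2B6 luciferase reporter; nearly all actives have a fitted effect of over 15% in size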
# condition_set: HepG2 hCAR CYP2B6-luciferase, agonist mode, 24 h; series mostly up to 92.4 µM
Results filed as inconclusive are left out. Activity calls are given as the source filed them. The call rests on the fitted dose curve; in most records, active means well fitted activation curve with a large enough effect in the repeat runs; inconclusive means weak or mixed curves; inactive means no such curve, though single readings can be large or run the other way.
Output constraint: value belongs to YES (active), NO (inactive)

Exercise: Tell me the assay call for CC(=O)Nc1ccn(C2COC(COC(=O)c3ccccc3)O2)c(=O)n1 (stereo not drawn) please.
Key: NO

Exercise: Returns: the outcome recorded for "C[C@H](CN1CCCC1)C(=O)c1ccc(C(F)(F)F)cc1" in this assay.
Key: NO
